tested on: A498 renal; test: NCI-60 one-dose screen, 48 h (100 = growth as untreated, 0 = no growth, -100 = all killed); conditions: 10 µM unless noted
The panel holds about 83,000 compounds, 20% with a hit somewhere; the sample as a whole holds those more often. The source made the active and inactive calls. How the source made its calls: active means growth percent below 10; inactive means the rest.
Task for the reader: assign each of the following compounds its reported growth.

Input N#CC1=C(c2ccco2)Nc2c(c(-c3ccccc3)nn2-c2ccccc2)C12C(=O)Nc1ccc(Br)cc12 (configuration not stated) . Output growth: 124% (inactive)

GET /value?item= COc1ccc2c(c1)C(Sc1ccc(F)cc1)c1c(nc(N)c(C#N)c1N)O2 (configuration not stated) &field=growth returns 101% (inactive)

Query Cc1ccc(C2CC(c3ccc(NC(=O)Nc4ccccc4)cc3)=NN2c2ccc(S(N)(=O)=O)cc2)cc1 (configuration not stated) yields growth of -93% (active)

growth reading for COc1ccc(-c2cc(C(=O)N=Nc3c(O)[nH]c4ccc(Cl)cc34)c3ccccc3n2)cc1OC : 167% (inactive)

growth recorded for this compound, Cc1[nH]nc2ccc3nc(-c4cn[nH]c4C(F)(F)F)c4c(c3c12)CCCC4 , is -61.1% (active)

Data point: CN1C(=O)/C(=C\C(=O)c2cc3ccccc3oc2=O)c2ccccc21 ; growth = 160% (inactive)

Measured growth, CCOC(=O)/C(F)=C/C1CC1C1CCN(C(=O)OC(C)(C)C)CC1 (configuration not stated) : 127% (inactive)

The compound listed as O=C(N/N=C/c1ccc(Cl)o1)c1[nH]c2ccc(Br)cc2c1-c1ccccc1 shows growth equal to -25.6% (active)

The reported growth of the compound CCC1(OC(=O)c2ccccc2SSCCOC(=O)CCCCC2SCC3NC(=O)NC32)C(=O)OCc2c1cc1n(c2=O)Cc2cc3ccccc3nc2-1 (configuration not stated) was 104% (inactive)

Consider O=S(=O)(c1nc(-c2ccc(Br)cc2)oc1-c1ccc(Cl)cc1)N1CCCC(O)C1 (configuration not stated) . Its measured growth is 83.3% (inactive)

The compound COC(=O)c1c(C(=O)OC)c2c3ccccc3c3ccccc3n2c1C(=O)C(C)(C)C showed growth equal to 132% (inactive)

Reported growth ( Cc1nn(-c2ccccc2)c2nc(C)n(CC(=O)N/N=C/c3ccccc3O)c(=O)c12 ) = 97% (inactive)

Short answer for OC(c1ccccc1)(c1ccccc1)C1CCN(c2ccc3nnc(Cl)n3n2)CC1 : growth was 77.8% (inactive)

The compound Cc1ccc2c(c1)nc(-c1ccccc1)n2CC(=O)N=Nc1c(O)[nH]c2ccc(Cl)cc12 showed growth equal to -71.1% (active)

The measured growth associated with Cc1ccc(C(=O)Nc2cc(-n3ccnc3)cc(C(F)(F)F)c2)cc1-n1cc(-c2cnc3cccnn23)nn1 reads 180% (inactive)

Record C=CCSc1nnc(-c2ccc(-c3nc4ccc(Cl)cc4[nH]3)cc2)o1 , field growth: 106% (inactive)

COc1cc(CNC(=O)C[C@H](C)CCC=C(C)C)ccc1OCc1cn(-c2ccccc2F)nn1 yielded growth of 103% (inactive)

Kindly note the recorded growth for COc1ccc2[nH]c(=O)c(CSc3ccccc3Nc3nccc(-c4ccc(Cl)cc4)n3)cc2c1 , which is 85.8% (inactive)

Sure, the documented growth for O=C(COc1ccc(/C=C2/C(=O)Nc3ccc(Cl)cc32)cc1)Nc1ccc(Br)cc1 is -51% (active)

Query O=C1Nc2cc(-c3ccc(NS(=O)(=O)c4ccc(C(F)(F)F)cc4)cc3)ccc2/C1=C/c1ccc[nH]1 yields growth of 28.9% (inactive)

Entry NC(=Nc1ccc(OCCCCCCCCn2cnnn2)cc1)c1ccccc1 ; growth = 114% (inactive)

Field growth (entry Cn1cc(-c2cc(N)n3nc(-c4c[nH]c5ccccc45)cc3n2)c2cc(Cl)ccc21 ) reads -59.1% (active)

Measured growth, COc1ccc(/C=C/C(=O)c2ccc(OC)c(S(N)(=O)=O)c2)c(C(F)(F)F)c1 : 195% (inactive)

Query NCCCCn1c(SCCc2c[nH]c3ccccc23)nnc1-c1ccc2ccccc2n1 yields growth of 98.5% (inactive)

growth reported for this compound CN(C)CCOc1ccc(C(=O)C2[C@H](c3ccc(Cl)cc3)[C@@H](c3ccccc3)NC23C(=O)Nc2ccc(Cl)cc23)cc1 (some centres not stated) : -95.9% (active)

// growth lookup, compound = COC(=O)CSC1=C(C)C(=O)C(OC)=C(OC)C1=O , result: 90.4% (inactive)

For Clc1ccccc1Nc1nnc(-c2c[nH]c3ccccc23)o1 the compound record lists growth as 113% (inactive)

Recorded result, COc1ccc(-c2nc3ccc(-c4nnc(SCc5ccccc5)o4)cc3[nH]2)cc1 , growth: -36.2% (active)

Consider O=C(N=Nc1c(O)[nH]c2ccc(Cl)cc12)c1ccc2nc(-c3ccc(Cl)cc3)[nH]c2c1 . Its measured growth is 47.8% (inactive)

According to the records, this compound Nc1cc2ccccc2c(=O)n1NC(=O)c1ccccc1 displays growth of 145% (inactive)

In plain terms, CC1CCc2c(sc3nc(SCC(=O)c4cccc([N+](=O)[O-])c4)n(-c4ccccc4)c(=O)c23)C1 (configuration not stated) has a documented growth of 115% (inactive)

Note to self: growth recorded for CC(C)CN1C(=O)/C(=C\C(=O)c2cc3ccccc3oc2=O)c2ccccc21 was 149% (inactive)

Form field growth, entry Nc1nn2c(-c3cc4cc(Br)ccc4oc3=O)ccnc2c1N=Nc1ccc(S(N)(=O)=O)cc1 : 149% (inactive)

Per the record, O=C1Nc2cc(-c3ccc(NS(=O)(=O)c4ccc(F)c(Cl)c4)cc3)ccc2/C1=C/c1ccc[nH]1 has growth of 52.1% (inactive)

The reported growth of the compound COc1ccc(C2=NN(C(=O)[C@H]3[C@@H](c4ccco4)c4sc(=O)[nH]c4S[C@@H]3C)C(c3ccc4ccccc4c3)C2)cc1 (some centres not stated) was 102% (inactive)

Value of measured growth for the entry Cc1ccc2c(c1)/C(=C/C(=O)c1cc3ccccc3oc1=O)C(=O)N2 : 128% (inactive)

Looking up CC(Nc1ncnc2ccc(-c3ccc4oc(N)nc4c3)cc12)c1ccccc1 (configuration not stated) , I see its growth listed as 49.8% (inactive)

Attribution: PubChem BioAssay (NCI)
